Quick list: protein stability index per entry.
B1: SOAT1 (parent)
chain: PSNGRIDIKQLIAKKIKLTAEAEE

# Variants of: B1
# Run description: protein stability index of a GFP-peptide fusion (GPS, HEK-293T) (PSI 1-6); higher = more stable;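 also: lentivirally expressed fusions sorted by FACS into six bins by GFP to DsRed ratio, PSI derived from sequencing read proportions per bin multiplied by bin number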
# Measurement conditions: c terminus: a fixed tail appended
Could you respond with only the numeric value?

Inquiry: # return recorded protein stability index for entry PSNGRIDIYQLIAKKIKLTAEAEE [K9Y]
Reply text: 3.03

Inquiry: # return recorded protein stability index for entry PSNGRIDIKQLIAKKIKLTCEAEE [A20C]
Reply text: 3.44

Inquiry: # return recorded protein stability index for entry PSNGRIDIKQLIAKKRKLTAEAEE [I16R]
Reply text: 3.65

Inquiry: # return recorded protein stability index for entry PSNGRIDIKQLIAKKISLTAEAEE [K17S]
Reply text: 3.59

Inquiry: # return recorded protein stability index for entry PSNGRIDIKQLCAKKIKLTAEAEE [I12C]
Reply text: 3.83

Inquiry: # return recorded protein stability index for entry PSEGRIDIKQLIAKKIKLTAEAEE [N3E]
Reply text: 4.27
